- Tested on: NCI-H226
- Method: NCI tumour cell line growth inhibition, 48 h
Activity calls are given as the source filed them. No stated cut-off is given here; in the data, active = GI50 up to about 1.1 µM and inactive = higher.
Respond using exactly one of the listed classes: label 1 = active, label 0 = inactive

Reference set (4 entries):
Molecule	Assayed Target	Class
CCN(CC)/[N+]([O-])=N/OC	NCI-H226	label 0
Cc1ccc2ccccc2c1CSc1nc(N)nc2c1ncn2CC(C)C	NCI-H226	label 0
CC(=O)OC[C@@H]1[C@H]2CC[C@]3(C)[C@@H](OC(C)=O)CC[C@H]3[C@@H]2CC[C@H]1C1(C)SCCS1	NCI-H226	label 0
CCN(CC)C(=S)N/N=C(/C)c1cccc(/C(C)=N\NC(=S)N(CC)CC)n1	NCI-H226	label 0

In this assay, the call recorded for `COC(=O)[C@@]12OC[C@]34[C@H]([C@@H](O)[C@@H]1O)[C@@]1(C)CC(=O)C(OC(C)=O)=C(C)[C@@H]1C[C@H]3OC(=O)[C@H](OC(=O)C=C(C)C)[C@@H]24` was what?
label 1

Proceed to `O/N=N\c1nc(-c2ccccn2)nc2ccccc12`
label 0

Proceed to CC[C@]12C=CCN3CC[C@@]4(c5cc(Br)c(OC)cc5N(C)[C@H]4[C@@](O)(C(=O)NC(Cc4c[nH]c5ccccc45)C(=O)OC)[C@@H]1O)[C@@H]32 (stereo partly drawn)
label 0

Proceed to `Cc1cc2c(C)n(Cc3ccc(Cl)cc3Cl)nc2c(C#N)c1C`
label 0

Proceed to COc1cccc2c1cc([N+](=O)[O-])c1c(C(=O)O)cc3c(c12)OCO3 [ARISTOLOCHIC ACID]
label 0

Proceed to `Cc1n[nH]c(=O)n1N1C(=O)c2ccccc2C1=O`
label 0

Proceed to `CCCCCCCCCCCCCCCCCc1cc(Cl)nc(Cl)n1`
label 0
